Tested on: SARS-CoV-2
Type: cell-based
Conditions: concentration reducing replication to 50% vs control, read-out: Antiviral activity
pIC50: −log10 of the molar value.
Readout: pIC50

Query: Write down pIC50 measured for item CCC(C)C1OC2(CCC1C)CC1CC(CC=C(C)C(OC3CC(OC)C(OC4CC(OC)C(O)C(C)O4)C(C)O3)C(C)C=CC=C3COC4C(=NO)C(C)CC(C(=O)O1)C34O)O2 (centres unmarked)
Reply: > 6.00

Query: State, in one line, measured pIC50 of CCC(C)C1OC2(CCC1C)CC1CC(CC=C(C)C(OC3CC(OC)C(OC4CC(OC)C(O)C(C)O4)C(C)O3)C(C)C=CC=C3COC4C(=NOCC(=O)NC)C(C)=CC(C(=O)O1)C34O)O2 (centres unmarked)
Reply: > 6.00
